# Test system: polyclonal antibody ab6982
# Experiment Description: Epitope mapping of polyclonal antibody ab6982 against cyclic peptides of Ad5 fiber and hexon (peptide array)
# Assay type: binding, rabbits
# Test Context: cyclic peptides of fiber protein (clusters 1-7)
Reported Property: antibody binding signal ranking from the microarray experiment
Lab note: write the figure by itself, no unit.

Quick one: antibody binding signal ranking from the microarray experiment of EFAWPGASSWALNG (REGION 1..14: note = peptide derived from viral capsid protein) [SEQ ID NO: 2015] ? 126

So what's the measured antibody binding signal ranking from the microarray experiment for this one? SDSEYQLPYVLGSA [SEQ ID NO: 2050] 197

I have this substance here, RVSKTKTDNNNSNF [SEQ ID NO: 2049] , and I need its recorded antibody binding signal ranking from the microarray experiment. 178

GET /values?readout=antibody binding signal ranking from the microarray experiment&item= NEADAAALEHDKAY (REGION 1..14: note = peptide derived from viral capsid protein) [SEQ ID NO: 2004] 163

Which antibody binding signal ranking from the microarray experiment value is on record for NPVATEQYGSVSTN (REGION 1..14: note = peptide derived from viral capsid protein) [SEQ ID NO: 2005] ? 004

Which antibody binding signal ranking from the microarray experiment value belongs to 189 (LNNSFLDPEY) [compound 189] ? 114

Give the measured antibody binding signal ranking from the microarray experiment of 197 (ATSSYTF) [compound 197] . 080

What measured antibody binding signal ranking from the microarray experiment goes with PVPANPPTTFSPAK [SEQ ID NO: 1992] ? 010

Name the reported antibody binding signal ranking from the microarray experiment value associated with the substance ANPGIAMATHKDDE [SEQ ID NO: 2060] 100

###

# Tested on: IgG from human donors (anti-AAV antibodies)
# Experiment Description: Screen for anti-AAV antibodies in human sera, 2452 linear 15-amino-acid AAV peptides on microarrays (Table 1)
# Type: binding
# Set-up: key: X: the deduplicated aggregate of the respective top 10 peptide hits for each donor was compiled and designated as group I
# Test Context: membership in deduplicated aggregate of top 10 peptide hits for each donor; human donor IgG binding to linear 15-amino-acid AAV peptides on microarray, fluorescence

Sequence Entry: APGKKRPVEHSPVE (REGION 1..14: note = peptide derived from viral capsid protein) [SEQ ID NO: 1999]
group I: X

Sequence Entry: GDSESVPDPQPLGE [SEQ ID NO: 1983]
group I: X

Sequence Entry: APGKKRPVDQSPQE (REGION 1..14: note = peptide derived from viral capsid protein) [SEQ ID NO: 1918]
group I: X

Sequence Entry: KNTPVPADPPTTFS (REGION 1..14: note = peptide derived from viral capsid protein) [SEQ ID NO: 1953]
group I: ×

###

# Tested on: mAb ADK8
# Experiment Description: Epitope mapping of mAb ADK8 against AAV peptides
# Format: binding, mice
I'd appreciate it if you could label each record using peptide number according to binding strength and these ranges: lower level: < 20; middle level: ≥ 20 and < 30; upper level: ≥ 30

Any idea which band 347 (QAVGRSSFYCLEY) [compound 347] is in? upper level

Class? Entry: 313 (VYLQGPI) [compound 313] lower level

Please classify: 315 (DVYLQGP) [compound 315] lower level

Using the reported peptide number according to binding strength, which band applies to 351 (IDQYLYY) [compound 351] ? upper level

# bin label for 346 (AVGRSSFYCL) [compound 346] middle level

Which band does 341 (SAHQGCLPPF) [compound 341] fall in? upper level

Categorize the following entry: 345 (AVGRSSFYCLEYF) [compound 345] middle level

Which of the defined bands does the recorded peptide number according to binding strength of 350 (PLIDQYLYYL) [compound 350] sit within? middle level

For this substance, which bin applies? 328 (YFGYSTPWGY) [compound 328] middle level

Lab note: which band did 342 (VLGSAHQGCL) [compound 342] land in? upper level

Record 325 (TPWGYFDFNRFHC) [compound 325] — which class? lower level

Please classify: 343 (PYVLGSAHQGCLP) [compound 343] upper level

Just checking, what class would you give 337 (VLGSAHQGCLPPF) [compound 337] here? middle level

Assign a category based on measured peptide number according to binding strength for 329 (FGYSTPWGYFDFN) [compound 329] and give only the class name. upper level

State the class of the substance shown: 344 (GRSSFYC) [compound 344] lower level

Record 322 (GYSTPWGYFD) [compound 322] — which class? lower level

Place this substance in its band: 331 (WLPGPCY) [compound 331] lower level

For 338 (LPYVLGSAHQGCL) [compound 338] , which peptide number according to binding strength bin applies? upper level

Categorize the following entry: 339 (YVLGSAHQGC) [compound 339] upper level

Textbook exercise: identify the category of the substance given here, 340 (CLPPFPA) [compound 340] , according to its measured value. upper level

Consider 317 (LQGPIWA) [compound 317] . To which peptide number according to binding strength class does it belong? lower level

Which category does the recorded peptide number according to binding strength put 348 (NGSQAVGRSSFYC) [compound 348] in? upper level

Assign a bin to 323 (YSTPWGYFDF) [compound 323] lower level

# bin label for 330 (NWLPGPC) [compound 330] lower level

Field: class (peptide number according to binding strength) — entry: 349 (DQYLYYL) [compound 349] lower level

State the class of the substance shown: 336 (GCLPPFP) [compound 336] lower level

Assign a bin to 321 (FGYSTPWGYF) [compound 321] lower level
